- applied-conditions: in n-propanol, 311.65 K
readout-name: solubility (mole fraction)
Number only, please.

**Q:** Form field: reported solubility (mole fraction) of Fc1c(I)c(F)c(I)c(F)c1I
**A:** 0.00417

----------
- applied-conditions: in THF, 295.45 K
readout-name: solubility (mole fraction)
Number only, please.

**Q:** Form field: reported solubility (mole fraction) of Fc1c(I)c(F)c(I)c(F)c1I
**A:** 0.00497

----------
- applied-conditions: in ethyl acetate, 305.15 K
readout-name: solubility (mole fraction)
Number only, please.

**Q:** Form field: reported solubility (mole fraction) of Fc1c(I)c(F)c(I)c(F)c1I
**A:** 0.000976
